Target: T1, PUF4 RNA-binding domain (Saccharomyces cerevisiae, UniProt P25339 537-888)
T1 sequence: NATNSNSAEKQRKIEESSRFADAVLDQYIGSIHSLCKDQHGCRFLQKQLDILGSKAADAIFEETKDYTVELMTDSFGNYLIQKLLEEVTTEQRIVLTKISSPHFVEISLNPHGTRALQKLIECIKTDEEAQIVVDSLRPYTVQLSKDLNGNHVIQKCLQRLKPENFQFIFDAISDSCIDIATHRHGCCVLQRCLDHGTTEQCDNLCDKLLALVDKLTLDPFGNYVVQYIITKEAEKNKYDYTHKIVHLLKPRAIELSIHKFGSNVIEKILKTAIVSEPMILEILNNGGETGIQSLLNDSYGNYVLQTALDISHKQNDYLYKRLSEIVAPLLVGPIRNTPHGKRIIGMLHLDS
Experiment: Mg; RNA-MaP; 20 mM Na-HEPES pH 7.4, 30 mM KOAc, 0.75 mM MgCl2, 0.1% Tween-20, 5% glycerol, 0.1 mg/mL BSA, 2 mM DTT; 25 C; 0.0125-409.6 nM protein
Conditions: tags: N-His6-TEV cleaved; C-SNAP kept, Cy3B-labelled; label: tethered on chip by stalled RNA polymerase

Binder	Modifier	Kd / nM
ACAAACCAAACACUAUAUAACAAAC (ssRNA) [Id_i_S3_P3E.7_K3.3_C3.3_[T-3C]_[C-2A]_[T-1A]_H3.3_A3.1_F3.1_T3.2]	>	2300
Ic_S2_P4E.1_K4.1_C4.1_H4.1_A4.1_[T5A]_[T7A]_F4.1_[A9C]_T4.1 (ssRNA) RNA: UUUGAUUAAUAUGAUAUCGUUCUUUCUUGUAAAAUCUUCUUUCUCGAUAUCAUAUUAAUCUUU	=	65.2
Ic_S4_P3E.1_K3.1_C3.1_H3.1_A3.1_[A6T]_F3.1_[T7A]_[A8G]_T3.1 (ssRNA) RNA: UUUGACAACUGAUCGUUCUUUCUUGUAUUAGUUCUUUCUCGAUCAGUUGUCUUU	=	944
UCUCUUUGCAAAUAUCUCUU (ssRNA) [Ib_S1_P3E.1_K3.1_C3.1_H3.1_[T3C]_A3.1_[T5A]_F3.1_T3.1]	>	2300
UCUCUUUCUAUAUAUAUCUCUCUU (ssRNA) [Id_ii_S1_P3E.3_K3.2_C3.2_[C-2T]_[T-1C]_H3.2_A3.1_F3.1_T3.2_[A10C]]	=	602
UCUCUUUGUCUAUUAUCUCUU (ssRNA) [Ia_S1_P4E.1_K4.1_C4.1_H4.1_[A4C]_A4.1_F4.1_T4.1]	=	12.7

Data origin: paper PMC9352680
